Test system: H929 multiple myeloma tumour line
Experiment: In vitro cytotoxicity, Microculture Tetrazolium Assay
Format: cell-based
Conditions: Homo sapiens, NCI-H929, 48 h, H929 cells, 48 hours exposure, MTT; read-out: IC50 (μM) MTT H929
MEASURED_ENDPOINT: IC50 (µM)
Just the number in µM, nothing appended.

# MOLECULE, MEASURED_ENDPOINT, VALUE_OBSERVED
measured = [
    ("Cc1c(-c2c(-c3ccc(F)cc3)sc3ncnc(OC(Cc4ccccc4OCc4ccnc(-c5ccc(Cl)cc5)n4)C(=O)O)c23)ccc(OCCN2CCN(C)CC2)c1Cl (stereo not drawn)", "IC50", 0.045),
    ("COc1ccccc1-c1nccc(COc2ccccc2CC(Oc2ncnc3sc(C#CCOc4ccccc4)c(-c4ccc(OCCN5CCN(C)CC5)c(Cl)c4C)c23)C(=O)O)n1 (stereo not drawn)", "IC50", 0.057),
    ("COc1c(F)cccc1CC(Oc1ncnc2sc(-c3ccco3)c(-c3ccc(OCCN4CCN(C)CC4)c(Cl)c3C)c12)C(=O)O (stereo not drawn)", "IC50", 0.91),
    ("Cc1c(-c2c(-c3ccc(F)cc3)sc3ncnc(OC(Cc4ccccc4OCc4ccnn4CCN(C)C)C(=O)O)c23)ccc(OCCN2CCN(C)CC2)c1Cl (stereo not drawn)", "IC50", 0.274),
    ("COCCNC(=O)COc1ccccc1CC(Oc1ncnc2sc(-c3ccc(F)o3)c(-c3ccc(OCCN4CCN(C)CC4)c(Cl)c3C)c12)C(=O)O (stereo not drawn)", "IC50", 0.286),
]

Attention now shifts to the item below.
Q: Please give measured IC50 of the following entry: Cc1c(-c2c(-c3ccc(F)cc3)sc3ncnc(OC(Cc4ccccc4OCc4ccnc(-c5ccnc(Cl)c5)n4)C(=O)O)c23)ccc(OCCN2CCN(C)CC2)c1Cl (stereo not drawn)
Ans: 0.02

###

Biological target: Mcl-1 protein (UniProtKB primary accession number: Q07820) (Homo sapiens, UniProt Q07820)
Sequence (Q07820 whole entry): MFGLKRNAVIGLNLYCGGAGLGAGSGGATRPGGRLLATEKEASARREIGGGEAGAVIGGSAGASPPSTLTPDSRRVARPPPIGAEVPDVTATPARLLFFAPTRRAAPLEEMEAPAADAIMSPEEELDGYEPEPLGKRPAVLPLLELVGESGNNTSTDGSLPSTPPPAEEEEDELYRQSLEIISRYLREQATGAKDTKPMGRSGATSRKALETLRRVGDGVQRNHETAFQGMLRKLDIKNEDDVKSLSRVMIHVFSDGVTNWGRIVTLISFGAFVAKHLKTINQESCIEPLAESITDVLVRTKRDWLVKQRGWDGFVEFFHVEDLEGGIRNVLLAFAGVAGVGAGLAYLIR
Test: Inhibition of Mcl-1 by fluorescence polarisation, Method 1
Assay type: binding
Conditions: fluorescence polarisation test; Method 2 values are underlined in the patent (underlining not visible here); read-out: IC50 (M) Mcl-1 FP
MEASURED_ENDPOINT: IC50 (M)
Just the number in M, nothing appended.

# MOLECULE, DISPLAY_UNIT, IC50
rows = [
    ("Cc1c(-c2c(-c3ccco3)sc3ncnc(OC(Cc4ccccc4OCc4cnnn4Cc4ccccc4)C(=O)O)c23)ccc(OCCN2CCN(C)CC2)c1Cl (stereo not shown)", "M", "4.7e-09"),
    ("CCCCCn1nccc1COc1ccccc1CC(Oc1ncnc2sc(-c3ccc(F)cc3)c(-c3ccc(OCCN4CCN(C)CC4)c(Cl)c3C)c12)C(=O)O (stereo not shown)", "M", "3.6e-09"),
    ("Cc1c(-c2c(-c3ccc(F)o3)sc3ncnc(OC(Cc4ccccc4OCc4ccnc(C(F)(F)F)c4)C(=O)O)c23)ccc(OCCN2CCN(C)CC2)c1Cl (stereo not shown)", "M", "4.6e-09"),
    ("Cc1ccccc1CC(Oc1ncnc2sc(-c3ccco3)c(-c3ccc(OCCN4CCN(C)CC4)c(Cl)c3C)c12)C(=O)O (stereo not shown)", "M", "1.1e-08"),
    ("CCc1c(-c2c(-c3ccco3)sc3ncnc(OC(Cc4ccccc4OC)C(=O)O)c23)ccc(OCCN2CCN(C)CC2)c1Cl (stereo not shown)", "M", "1.2e-08"),
]

Attention now shifts to the item below.
Q: Please give measured IC50 of the following entry: CCOc1ccccc1CC(Oc1ncnc2sc(-c3ccco3)c(-c3ccc(OCCN4CCN(C)CC4)c(Cl)c3C)c12)C(=O)O (stereo not shown)
Ans: 8e-09

###

Test system: H929 multiple myeloma tumour line
Test: In vitro cytotoxicity, Microculture Tetrazolium Assay
Assay type: cell-based
Settings: Homo sapiens, NCI-H929, 48 h, H929 cells, 48 hours exposure, MTT; read-out: IC50 (μM) MTT H929
Reported IC50 maps to class as: low: < 0.1 µM; moderate: ≥ 0.1 µM and < 2 µM; high: ≥ 2 µM

# COMPOUND, TESTED_SYSTEM, DISCRETE_LABEL
rows = [
    ("Cc1c(-c2c(-c3ccc(F)cc3)sc3ncnc(OC(Cc4ccccc4OCc4cnccn4)C(=O)O)c23)ccc(OCCN(C)C)c1Cl (stereo not drawn) [Example 134]", "H929 multiple myeloma tumour line", "moderate"),
]

Q: Class? Entry: CSc1nccc(COc2ccccc2CC(Oc2ncnc3sc(-c4ccc(F)cc4)c(-c4ccc(OCCN5CCN(C)CC5)c(Cl)c4C)c23)C(=O)O)n1 (stereo not drawn) [Example 65]
Ans: low

Q: Class? Entry: COc1ccccc1CC(Oc1ncnc2sc(-c3cccc(OC)c3F)c(-c3ccc(OCCN4CCN(C)CC4)c(Cl)c3C)c12)C(=O)O (stereo not drawn) [Example 561]
Ans: moderate

Q: Class? Entry: COc1ccccc1C[C@@H](Oc1ncnc2sc(-c3ccco3)c(-c3ccc(OCCN4CCN(C)CC4)c(Cl)c3F)c12)C(=O)O [Example 337]
Ans: moderate

Q: Class? Entry: Cc1c(-c2c(-c3cc4ccccc4s3)sc3ncnc(OC(Cc4ccccc4)C(=O)O)c23)ccc(OCCN2CCN(C)CC2)c1Cl (stereo not drawn) [Example 497]
Ans: high

Q: Class? Entry: Cc1c(-c2c(-c3ccc(F)cc3)sc3ncnc(OC(Cc4ccccc4OCc4ccnc(C5CCCC5)n4)C(=O)O)c23)ccc(OCCN2CCN(C)CC2)c1Cl (stereo not drawn) [Example 28]
Ans: low

Q: Class? Entry: COc1nccc(COc2ccccc2CC(Oc2ncnc3sc(-c4ccc(F)c(OCCN5CCOCC5)c4)c(-c4ccc(OCCN5CCN(C)CC5)c(Cl)c4C)c23)C(=O)O)n1 (stereo not drawn) [Example 596]
Ans: moderate

Q: Class? Entry: CCn1nccc1COc1ccccc1CC(Oc1ncnc2sc(-c3ccc(F)c(F)c3)c(-c3ccc(OCCN4CCN(C)CC4)c(Cl)c3C)c12)C(=O)O (stereo not drawn) [Example 708]
Ans: low

Q: Class? Entry: Cc1c(-c2c(-c3ccc(F)o3)sc3ncnc(OC(Cc4ccccc4OCC(=O)NC4CCCC4)C(=O)O)c23)ccc(OCCN2CCN(C)CC2)c1Cl (stereo not drawn) [Example 152]
Ans: moderate

Q: Class? Entry: COc1ccccc1CC(Oc1ncnc2sc(-c3cccc(F)c3F)c(-c3ccc(OCCN4CCN(C)CC4)c(Cl)c3C)c12)C(=O)O (stereo not drawn) [Example 560]
Ans: moderate

Q: Class? Entry: COc1ccccc1CC(Oc1ncnc2sc(-c3ccco3)c(-c3ccc(OCCN4CCN(CC(F)F)CC4)c(Cl)c3C)c12)C(=O)O (stereo not drawn) [Example 328]
Ans: high

Q: Class? Entry: CCc1sc2ncnc(OC(Cc3ccccc3)C(=O)O)c2c1-c1ccc(OCCN(C)C)c(Cl)c1C (stereo not drawn) [Example 407]
Ans: high

###

IC50 listing for selected compounds.
Target: Mcl-1 protein (UniProtKB primary accession number: Q07820) (Homo sapiens, UniProt Q07820)
Assay: Inhibition of Mcl-1 by fluorescence polarisation, Method 1
Format: binding
Details: fluorescence polarisation test; Method 2 values are underlined in the patent (underlining not visible here); read-out: IC50 (M) Mcl-1 FP
Just the number in M, nothing appended.

As a guide, the following entries are already answered.
# COMPOUND, VALUE_OBSERVED
data = [
    ("Cc1c(-c2c(-c3ccc(F)cc3)sc3ncnc(OC(Cc4ccccc4OCc4cnccn4)C(=O)O)c23)ccc(OCC2CCN(C)C2)c1Cl (centres unmarked) [Example 145]", "1.1e-08"),
    ("COCCSc1nccc(COc2ccccc2CC(Oc2ncnc3sc(-c4ccc(F)cc4)c(-c4ccc(OCCN5CCN(C)CC5)c(Cl)c4C)c23)C(=O)O)n1 (centres unmarked) [Example 67]", "3.4e-09"),
    ("COc1ccccc1CC(Oc1ncnc2sc(-c3ccco3)c(-c3ccc(OCCN4CCN(Cc5ccccc5)CC4)c(Cl)c3C)c12)C(=O)O (centres unmarked) [Example 329]", "6e-08"),
]

Q: Please give measured IC50 of the following entry: Cc1c(-c2c(-c3ccc(F)o3)sc3ncnc(OC(Cc4ccccc4OCc4ccnn4C(C)(C)C)C(=O)O)c23)ccc(OCCN2CCN(C)CC2)c1Cl (centres unmarked) [Example 181]
Ans: 4.8e-09

Q: Please give measured IC50 of the following entry: Cc1c(-c2c(-c3ccco3)sc3ncnc(OC(Cc4ccccc4OCc4ccccc4)C(=O)O)c23)ccc(OCCN2CCN(C)CC2)c1Cl (centres unmarked) [Example 240]
Ans: 7.2e-09

###

System: H929 multiple myeloma tumour line
Assay: In vitro cytotoxicity, Microculture Tetrazolium Assay
Assay type: cell-based
Details: Homo sapiens, NCI-H929, 48 h, H929 cells, 48 hours exposure, MTT; read-out: IC50 (μM) MTT H929
Lab note: compare IC50 with 0.3 µM, writing Condition met if less and Condition not met if equal or more.

# COMPOUND, DISCRETE_LABEL
measured = [
    ("COc1cc(F)ccc1CC(Oc1ncnc2sc(-c3ccco3)c(-c3ccc(OCCN4CCN(C)CC4)c(Cl)c3C)c12)C(=O)O (centres unmarked) [Example 346]", "Condition met"),
    ("CC#Cc1sc2ncnc(OC(Cc3ccccc3OC)C(=O)O)c2c1-c1cc(OC)c(OCCN2CCN(C)CC2)c(Cl)c1C (centres unmarked) [Example 477]", "Condition not met"),
    ("Cc1c(-c2c(-c3ccco3)sc3ncnc(OC(Cc4ccccc4OCc4cccs4)C(=O)O)c23)ccc(OCCN2CCN(C)CC2)c1Cl (centres unmarked) [Example 245]", "Condition met"),
    ("COCCOc1ccc(-c2sc3ncnc(OC(Cc4ccccc4OCc4ccnn4CC(F)(F)F)C(=O)O)c3c2-c2ccc(OCCN3CCN(C)CC3)c(Cl)c2C)cn1 (centres unmarked) [Example 694]", "Condition met"),
    ("CCCCNC(=O)COc1ccccc1CC(Oc1ncnc2sc(-c3ccco3)c(-c3ccc(OCCN4CCN(C)CC4)c(Cl)c3C)c12)C(=O)O (centres unmarked) [Example 220]", "Condition met"),
    ("CCc1sc2ncnc(OC(Cc3ccccc3OCc3ccnn3CC)C(=O)O)c2c1-c1ccc(OCCN2CCN(C)CC2)c(Cl)c1C (centres unmarked) [Example 456]", "Condition not met"),
    ("COc1ccc(-c2sc3ncnc(OC(Cc4ccccc4OC)C(=O)O)c3c2-c2ccc(OCCN3CCN(C)CC3)c(Cl)c2C)o1 (centres unmarked) [Example 544]", "Condition met"),
    ("Cc1c(-c2c(-c3ccco3)sc3ncnc(OC(Cc4ccccc4OCc4ncccc4Cl)C(=O)O)c23)ccc(OCCN2CCN(C)CC2)c1Cl (centres unmarked) [Example 285]", "Condition not met"),
    ("Cc1csc(-c2sc3ncnc(OC(Cc4ccccc4)C(=O)O)c3c2-c2ccc(OCCN3CCN(C)CC3)c(Cl)c2C)c1 (centres unmarked) [Example 495]", "Condition not met"),
    ("CCCCn1nccc1COc1ccccc1CC(Oc1ncnc2sc(-c3ccc(Cl)nc3)c(-c3ccc(OCCN4CCN(C)CC4)c(Cl)c3C)c12)C(=O)O (centres unmarked) [Example 606]", "Condition met"),
]

Q: Would you kindly verify if IC50 of COCCCn1nncc1COc1ccccc1CC(Oc1ncnc2sc(-c3ccc(F)cc3)c(-c3ccc(OCCN4CCN(C)CC4)c(Cl)c3C)c12)C(=O)O (centres unmarked) [Example 96] is strictly less than 0.3 µM?
Ans: Condition met

Q: Would you kindly verify if IC50 of CCc1sc2ncnc(OC(Cc3ccccc3)C(=O)O)c2c1-c1cc(Cl)c(OCCN2CCN(C)CC2)c(Cl)c1C (centres unmarked) [Example 436] is strictly less than 0.3 µM?
Ans: Condition not met

Q: Would you kindly verify if IC50 of Cc1cnc(COc2ccccc2CC(Oc2ncnc3sc(-c4ccco4)c(-c4ccc(OCCN5CCN(C)CC5)c(Cl)c4C)c23)C(=O)O)cn1 (centres unmarked) [Example 268] is strictly less than 0.3 µM?
Ans: Condition met

Q: Would you kindly verify if IC50 of CNc1nccc(COc2ccccc2CC(Oc2ncnc3sc(-c4ccco4)c(-c4ccc(OCCN5CCN(C)CC5)c(Cl)c4C)c23)C(=O)O)n1 (centres unmarked) [Example 253] is strictly less than 0.3 µM?
Ans: Condition met

Q: Would you kindly verify if IC50 of CCCCn1nccc1COc1ccccc1CC(Oc1ncnc2sc(-c3ccc(OCCN4CCOCC4)cc3)c(-c3ccc(OCCN4CCN(C)CC4)c(Cl)c3C)c12)C(=O)O (centres unmarked) [Example 616] is strictly less than 0.3 µM?
Ans: Condition met

Q: Would you kindly verify if IC50 of COc1ccccc1CC(Oc1ncnc2sc(C3CCCO3)c(-c3ccc(OCCN4CCN(C)CC4)c(Cl)c3C)c12)C(=O)O (single isomer, unassigned) [Example 591] is strictly less than 0.3 µM?
Ans: Condition not met

Q: Would you kindly verify if IC50 of Cc1c(-c2c(-c3ccco3)sc3ncnc(OC(Cc4ccccc4OCc4ccnc(OCC5CC5)n4)C(=O)O)c23)ccc(OCCN2CCN(C)CC2)c1Cl (centres unmarked) [Example 256] is strictly less than 0.3 µM?
Ans: Condition met
